Biological target: cathepsin K (Homo sapiens)
Construct: the active enzyme was obtained as the enzyme fraction by using detergent containing lysis buffer; made in house; host or cells: HEK293T (GenHunter Corporation), transient expression; detergent lysate used as enzyme fraction
Experiment: Cathepsin K inhibitory activity (fluorescent substrate Z-Leu-Arg-MCA)
Assay type: biochemical
Settings: enzyme expressed in HEK293T; 15 min preincubation, 30 min reaction at room temperature, pH 5.5; read-out: Activity Intensity (cathepsin K inhibitory activity, pIC50 class) (converted)
TEST_READOUT: IC50

Lookup: IC50 / cathepsin K (Homo sapiens) / CC[C@@H](CNc1ccc(N2CCC[C@H](C(=O)O)C2)cc1)NC(=O)[C@H](CC(C)(C)F)N[C@@H](c1ccccc1)C(F)(F)F [Compound 151]
≤ 3.16 nM

Lookup: IC50 / cathepsin K (Homo sapiens) / CC[C@@H](CNc1ccc(N2CCOCC2)cc1)NC(=O)[C@H](CC(C)C)N[C@@H](c1ccc(OC(F)F)cc1)C(F)(F)F [Compound 33]
≤ 3.16 nM

Lookup: IC50 / cathepsin K (Homo sapiens) / CCOC(=O)C1(C(C)C)CCN(c2ccc(NC[C@H](CC)NC(=O)[C@H](CC(C)C)N[C@@H](c3ccccc3)C(F)(F)F)cc2)CC1 [Compound 109]
≤ 3.16 nM

###

In this section we review reported Residual Rate at 25 minutes (%) values for a set of compounds.
Assay: Metabolic stability test using human liver microsome
Format: in vitro ADME
Settings: NADPH, 37° C., 25 minutes versus 0 minute, LC/MS peak area
Number in %, nothing else.

>>> df
                                 cpd_smiles                     test_readout  numeric_readout
0  CC[C@@H](CNc1ccc(N2CCOCC2)cc1)NC(=O)[C@H](CC(C)C)N[C@@H](c1ccc(=O)n(C)c1)C(F)(F)F  Residual Rate at 25 minutes (%)               46
1  CC[C@@H](CNc1ccc(OC)cc1OC)NC(=O)[C@H](CC(C)(C)F)N[C@@H](c1ccccc1)C(F)(F)F  Residual Rate at 25 minutes (%)                0

Next item in the queue.
// lookup Residual Rate at 25 minutes (%) for CC[C@@H](CNc1ccc(OCC(=O)O)cc1OC)NC(=O)[C@H](CC(C)C)N[C@@H](c1ccc(OC)nc1)C(F)(F)F
108

###

Experiment: Metabolic stability test using human liver microsome
Assay type: in vitro ADME
Settings: NADPH, 37° C., 25 minutes versus 0 minute, LC/MS peak area
Protocol: For the compounds synthesized according to the method of the above Examples and the compounds of formula (B) (the compounds disclosed in WO2002/070517), the metabolic stability test using the human liver microsome was performed and the residual rate of each compound was calculated. […]
TEST_READOUT: Residual Rate at 25 minutes (%)
Number in %, nothing else.

// lookup Residual Rate at 25 minutes (%) for CC[C@@H](CNc1ccc(OC(C)(C)C(=O)O)cc1OC)NC(=O)[C@H](CC(C)(C)F)N[C@@H](c1ccccc1)C(F)(F)F
123

// lookup Residual Rate at 25 minutes (%) for CC[C@@H](CNc1ccc(OCC(=O)O)cc1OC)NC(=O)[C@H](CC(C)C)N[C@@H](c1cccnc1)C(F)(F)F
105

// lookup Residual Rate at 25 minutes (%) for CC(C)C[C@H](Nc1cscc1-c1ccc(N2CCNCC2)cc1)C(=O)NCCNc1ccc(OCc2ccccc2)cc1 [B, reference compound]
0

// lookup Residual Rate at 25 minutes (%) for CC[C@@H](CNc1ccc(OCC(=O)O)cc1OC)NC(=O)[C@H](CC(C)(C)F)N[C@@H](c1ccccc1)C(F)(F)F
111

// lookup Residual Rate at 25 minutes (%) for CC[C@@H](CNc1ccc(OC(C)C(=O)O)cc1OC)NC(=O)[C@H](CC(C)(C)F)N[C@@H](c1ccccc1)C(F)(F)F (some centres unmarked) [Compound 140]
101

// lookup Residual Rate at 25 minutes (%) for COc1ccc(NC[C@H](CCS(C)(=O)=O)NC(=O)[C@H](CC(C)C)N[C@@H](c2ccc(=O)[nH]c2)C(F)(F)F)c(OC)c1
41

// lookup Residual Rate at 25 minutes (%) for CC[C@@H](CNc1ccc(N2CCOCC2)cc1)NC(=O)[C@H](CC(C)C)N[C@@H](c1ccc(=O)[nH]c1)C(F)(F)F
77

// lookup Residual Rate at 25 minutes (%) for CC[C@@H](CNc1ccc(OC(C)C(=O)O)cc1OC)NC(=O)[C@H](CC(C)(C)F)N[C@@H](c1ccccc1)C(F)(F)F (some centres unmarked) [Compound 142]
96

###

In this section we review reported IC50 values for a set of molecules.
Molecular target: cathepsin K (Homo sapiens)
Construct: the active enzyme was obtained as the enzyme fraction by using detergent containing lysis buffer; made in house; host or cells: HEK293T (GenHunter Corporation), transient expression; detergent lysate used as enzyme fraction
Sequence (P43235 115-329): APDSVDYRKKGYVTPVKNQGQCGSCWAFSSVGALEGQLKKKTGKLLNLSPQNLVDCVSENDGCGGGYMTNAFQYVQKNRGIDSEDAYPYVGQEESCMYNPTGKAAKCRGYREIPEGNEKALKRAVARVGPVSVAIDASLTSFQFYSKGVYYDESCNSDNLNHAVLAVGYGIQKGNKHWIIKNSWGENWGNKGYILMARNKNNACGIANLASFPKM
Test: Cathepsin K inhibitory activity (fluorescent substrate Z-Leu-Arg-MCA)
Format: biochemical
Details: enzyme expressed in HEK293T; 15 min preincubation, 30 min reaction at room temperature, pH 5.5; read-out: Activity Intensity (cathepsin K inhibitory activity, pIC50 class) (converted)

Example molecules with recorded IC50:
>>> df
                                 cpd_smiles           result
0  CC[C@@H](CNc1c(OC)cccc1OC)NC(=O)[C@H](CC(C)(C)F)N[C@@H](c1ccc(Br)cc1)C(F)(F)F  3.16 to 31.6 nM
1  CC[C@@H](CNc1ccc(OC(C)(C)C(=O)O)cc1OC)NC(=O)[C@H](CC(C)(C)F)N[C@@H](Cc1ccccc1)C(F)(F)F  3.16 to 31.6 nM

Lookup: IC50 / cathepsin K (Homo sapiens) / CC[C@@H](CNc1ccc2c(c1)OCO2)NC(=O)[C@H](CC(C)C)N[C@@H](c1ccc(OC)cc1)C(F)(F)F
31.6 to 10000 nM

###

Target: cathepsin K (Homo sapiens)
Construct: the active enzyme was obtained as the enzyme fraction by using detergent containing lysis buffer; made in house; host or cells: HEK293T (GenHunter Corporation), transient expression; detergent lysate used as enzyme fraction
Test: Cathepsin K inhibitory activity (fluorescent substrate Z-Leu-Arg-MCA)
Type: biochemical
Settings: enzyme expressed in HEK293T; 15 min preincubation, 30 min reaction at room temperature, pH 5.5; read-out: Activity Intensity (cathepsin K inhibitory activity, pIC50 class) (converted)
In this section we review reported IC50 values for a set of compounds.

                                 cpd_smiles           result
0  CC[C@@H](CNc1ccc(N(C)C)cc1)NC(=O)[C@H](CC(C)(C)F)N[C@@H](c1ccc(Br)cc1)C(F)(F)F     ≤ 0.00316 µM
1  CC[C@@H](CNc1ccc(OC(F)(F)C(=O)O)cc1OC)NC(=O)[C@H](CC(C)(C)F)N[C@@H](c1ccccc1)C(F)(F)F  0.0316 to 10 µM

// lookup IC50 for CC[C@H](N[C@@H](CC(C)C)C(=O)N[C@@H](CCS(C)(=O)=O)CNc1ccc(OC)cc1OC)C(F)(F)F
0.0316 to 10 µM

// lookup IC50 for CC[C@@H](CNc1ccc(N2CCC(C(=O)O)CC2)cc1)NC(=O)[C@H](CC(C)(C)F)N[C@@H](c1ccccc1)C(F)(F)F
≤ 0.00316 µM

// lookup IC50 for CC[C@@H](CNc1ccc(N2CCOCC2)cc1)NC(=O)[C@H](CC(C)C)N[C@@H](c1ccc(N(C)C)cc1)C(F)(F)F
≤ 0.00316 µM

// lookup IC50 for CC[C@@H](CNc1ccc(OCCCCC(=O)O)cc1OC)NC(=O)[C@H](CC(C)C)N[C@@H](c1ccccc1)C(F)(F)F
≤ 0.00316 µM

###

Assay: Metabolic stability test using human liver microsome
Format: in vitro ADME
Settings: NADPH, 37° C., 25 minutes versus 0 minute, LC/MS peak area
TEST_READOUT: Residual Rate at 25 minutes (%)
Number in %, nothing else.

Example molecules with recorded Residual Rate at 25 minutes (%):
>>> print(df.to_string())
                                   molecule                     test_readout  numeric_readout
0  CC[C@@H](CNc1ccc(OC)cc1OC)NC(=O)[C@H](CC(C)(C)F)N[C@@H](c1ccc(-c2ccc(S(C)(=O)=O)cc2)cc1)C(F)(F)F [Compound 5]  Residual Rate at 25 minutes (%)                0
1  CC(C)C[C@H](N[C@@H](c1ccccc1)C(F)(F)F)C(=O)N[C@@H](CCCNC(=N)N)CNc1ccc(N2CCOCC2)cc1 [Compound 101]  Residual Rate at 25 minutes (%)               67
2  CC[C@@H](CNc1ccc(N2CCC(C(=O)O)CC2)cc1)NC(=O)[C@H](CC(C)(C)F)N[C@@H](c1ccccc1)C(F)(F)F [Compound 147]  Residual Rate at 25 minutes (%)               80

// lookup Residual Rate at 25 minutes (%) for CC[C@@H](CNc1ccc(N2CCC(C(=O)O)CC2)cc1)NC(=O)[C@H](CC(C)C)N[C@@H](Cc1ccccc1)C(F)(F)F [Compound 153]
53

// lookup Residual Rate at 25 minutes (%) for CC[C@@H](CNc1ccc(N2CCC(C(=O)O)CC2)cc1)NC(=O)[C@H](CC(C)C)N[C@@H](c1ccccc1)C(F)(F)F [Compound 145]
88

// lookup Residual Rate at 25 minutes (%) for CC[C@@H](CNc1ccc(OCCCC(=O)O)cc1OC)NC(=O)[C@H](CC(C)C)N[C@@H](c1ccccc1)C(F)(F)F [Compound 155]
31
